- target_entity: HLA-A*01:01 (human)
- assay_procedure: UV peptide exchange + HLA class I ELISA
- test_settings: remark: other sources report otherwise
Definition: the class of an entry is the range in lower level = under 2%, middle level = from 2% up to 3%, upper level = 3% and over that contains its exchange rate vs Pos peptide.

binder	category_label
YQFTFDLLI (here or on the partner: biotinylated heavy chain) [P48 9-mer peptide (AR.p.H875Y)]	upper level
CPMSRLRLA (here or on the partner: biotinylated heavy chain) [P46 9-mer peptide (TP53 (R213D) frameshift)]	middle level
HVPKILSGK (here or on the partner: biotinylated heavy chain) [P58 9-mer peptide (AR (Q903H))]	middle level
QLIAMDSAI (here or on the partner: biotinylated heavy chain) [P22 9-mer peptide (SLC45A3-ELK4 fusion)]	upper level
RAVRRMNTF (here or on the partner: biotinylated heavy chain) [P17 9-mer peptide (MSMB-NOCA4 fusion)]	upper level
RVGNCKHLK (here or on the partner: biotinylated heavy chain) [P82 9-mer peptide (AR-V7 splice variant)]	lower level
YCMAAPMGL (here or on the partner: biotinylated heavy chain) [P76 9-mer peptide (AR-V3 splice variant)]	lower level
FLFLLLPLS (here or on the partner: biotinylated heavy chain) [P87 9-mer peptide (AR-Intron splice variant)]	lower level
LMAQRLLLR (here or on the partner: biotinylated heavy chain) [P97 9-mer peptide (FOXRED2-TXN2 fusion)]	middle level
RAKCKFSIL (here or on the partner: biotinylated heavy chain) [P56 9-mer peptide (SPOP(F102C))]	middle level
